molecular target: methionine-enkephalin (Homo sapiens), P01210; assay: UV spectroscopy; details: modification not given
Sequence (P01210 whole entry, looked up): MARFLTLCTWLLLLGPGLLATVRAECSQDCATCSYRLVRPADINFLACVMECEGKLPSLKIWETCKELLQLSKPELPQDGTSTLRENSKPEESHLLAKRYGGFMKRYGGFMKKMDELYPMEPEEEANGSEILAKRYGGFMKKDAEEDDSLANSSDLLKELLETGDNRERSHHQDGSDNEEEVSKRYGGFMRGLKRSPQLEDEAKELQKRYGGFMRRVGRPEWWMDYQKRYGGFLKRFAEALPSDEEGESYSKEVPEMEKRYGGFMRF
Attribute measured: pKd
Here pKd is given on a logarithmic scale as minus log10 of the concentration in mol/L.

-- ask Please look up its pKd: NLALADALATST [mu opioid receptor 111-122, P35372]
-- reply 4.10

-- ask # input binder: GAVVMPMNILY [histamine type 1 receptor 77-87, P35367] ; wanted: its pKd
-- reply 4.15

-- ask Dear colleague, I am looking for the recorded pKd of the following binder: KYRQGSIDCTLTFSHP [mu opioid receptor 211-226, P35372]
-- reply 6.00

-- ask Look up pKd for this binder: TIDWSRILDS [insulin receptor 157-166, P06213]
-- reply 4.00

-- ask Dear colleague, I am looking for the recorded pKd of the following binder: FWPFGSFCNI [dopamine D1 receptor 89-98, P21728]
-- reply 4.10

-- ask Consider the binder shown here: RATHQEAINCYANE [beta 2 adrenergic receptor 175-188, P07550] What is its recorded pKd?
-- reply 3.15

Shift focus to the following entry.
-- ask Quick one: pKd of STLPFQSVNYL [mu opioid receptor 121-131, P35372] ?
-- reply 4.05
